subject-of-test: PRC2.2 six-subunit complex WT (EZH2, SUZ12, EED, RBAP48, AEBP2, JARID2 119-450) (human, UniProt Q15910-2;Q15022;O75530;Q09028;Q6ZN18;Q92833 …)
method-notes: EMSA; 100 mM KCl; EMSA: 50 mM Tris-HCl pH 7.5 (25 C), 100 mM KCl, 2.5 mM MgCl2, 0.1 mM ZnCl2, 2 mM 2-mercaptoethanol?; FP: 50 mM Tris pH 7.5, 10 or 25 mM KCl, 2.5 mM MgCl2, 0.1 mM ZnCl2, 0.1 mg/mL BSA?, room temperature, 5 nM RNA or DNA
condition-info: protein: recombinant; tags: His-EZH2, Strep-GFP-AEBP2, Strep-GFP-JARID2; TEV protease treated; copies: 1;1;1;1;1;1; label: 5' 32P (EMSA); single G-quadruplex
pKd: −log10 of the molar value.
value-type: pKd

binder | numeric-result
CAAAAACAAAAACAAAAACAAAAACAAAAAGGGAAGGGAAGGGAAGGGAA (structured_RNA) [1G4 RNA, no biotin] | 6.92
